procedure_text: Aqueous solubility of the compound
Type: physicochemical
Below, each entry is listed with its recorded solubility.
property_name: solubility

{"columns": ["molecule", "property_name", "data_value"],
 "data": [
  ["C[C@@H]1Oc2nc([N+](=O)[O-])cn2C[C@@H]1OCc1ccc(OC(F)(F)F)cc1", "solubility", "9.89 µg/mL"],
  ["O=[N+]([O-])c1cn2c(n1)OC[C@@H](OCc1ccc(OC(F)(F)F)cc1)C2 [PRETOMANID]", "solubility", "10.2 µg/mL"],
  ["C[C@H]1Oc2nc([N+](=O)[O-])cn2C[C@@H]1OCc1ccc(OC(F)(F)F)cc1", "solubility", "10.3 µg/mL"]
]}
